system: NCI-H226; assay: NCI tumour cell line growth inhibition, 48 h
Active and inactive are the calls of the source. Cut-off read from the data, not from the text of the source: active = GI50 up to about 1.1 µM and inactive = higher.
Record form. Attribute: GI50. Fill in for each entry.

Hello, I am looking for reported GI50 with NCI-H226 for CC(=O)N/C(=C\c1ccccc1/C=C(\NC(C)=O)c1nc2cc(C)c(C)cc2[nH]1)c1nc2cc(C)c(C)cc2[nH]1 . Could you help?
25.8 µM (inactive)

Would you kindly repeat that for C=C(C(=O)OC)N1C(=O)CC(C)C1=O (stereo unspecified) ?
27 µM (inactive)

Would you kindly repeat that for COc1cc(S(=O)(=O)Nc2nc(-c3ccc(N4C(=O)/C(=C/c5ccccc5)N=C4c4ccccc4)cc3)cs2)ccc1Cl ?
62.5 µM (inactive)

Would you kindly repeat that for O=c1n(-c2ccccc2)c(=O)n2c(-c3ccccc3)c(-c3ccccc3)n12 ?
> 100 µM (inactive)

Would you kindly repeat that for CN1C(=O)C(C(N)=O)C2CC1(C)Oc1ccccc12 (stereo unspecified) ?
> 100 µM (inactive)

Would you kindly repeat that for CC(=O)NCCc1c(-c2[nH]c3ccccc3c2CCNC(C)=O)[nH]c2ccccc12 ?
> 100 µM (inactive)

====

system: MCF7; assay: NCI tumour cell line growth inhibition, 48 h
The source made the active and inactive calls. Cut-off read from the data, not from the text of the source: active = GI50 up to about 1.1 µM and inactive = higher.
Classes to choose from: active, inactive

I'd appreciate the recorded outcome for CCCCn1cnc2c(c(CC#N)nn2-c2ccccc2)c1=N from this test.
inactive

Would you kindly repeat that for COC(=O)C1=C(C)NC(CF)=C(C(=O)OC)C1c1cccc2c(=O)c3ccccc3oc12 (stereo not given) ?
inactive

Would you kindly repeat that for C[N+](C)(C)c1ncnc2c1ncn2C1CCCCO1 (stereo not given) ?
inactive

Would you kindly repeat that for CC(C)=CCC[C@@H](C)c1c2nc3ccccc3sc-2c(C)c(=O)c1O ?
inactive

Would you kindly repeat that for O=C(O)C1=C/C(=C(/c2ccccc2)c2cc(C(=O)O)c(O)c3ccccc23)c2ccccc2C1=O ?
inactive

Would you kindly repeat that for CCOC(=O)CC/C(C)=N\n1c(Cc2ccc(Cl)cc2)n[nH]c1=O ?
inactive

Would you kindly repeat that for Cc1ccc(CSC(=N)Nc2ccccc2)cc1C ?
inactive

Would you kindly repeat that for CCOC(=O)/C=C(/C=C\COC1CCCCO1)c1ccccc1 (stereo not given) ?
inactive

Would you kindly repeat that for O1C2C1C1OC1C1OC1C1OC21 (stereo not given) ?
inactive

Would you kindly repeat that for O=c1[nH]nc(Nc2ccccc2)c2nnn(C3CCCCC3)c12 ?
inactive

Would you kindly repeat that for COc1ccc(/C=C2\CCC(CN(C)C)C2=O)cc1 (stereo not given) ?
inactive

Would you kindly repeat that for Cc1cc(=O)nc(S(=O)(=O)NC(=O)Nc2cccc(Cl)c2)[nH]1 ?
inactive

Would you kindly repeat that for O=c1n(-c2ccccc2)c(=O)n2c(-c3ccccc3)c(-c3ccccc3)n12 ?
inactive

Would you kindly repeat that for S=C1NNC(=S)NN1 ?
active

Would you kindly repeat that for COc1cc(S(=O)(=O)Nc2nc(-c3ccc(N4C(=O)/C(=C/c5ccccc5)N=C4c4ccccc4)cc3)cs2)ccc1Cl ?
inactive

Would you kindly repeat that for CCOC(=O)CCc1cccc2c1oc1c(CCNC(=O)OCC3c4ccccc4-c4ccccc43)cccc12 ?
inactive

Would you kindly repeat that for CC(=O)O[C@@H]1[C@H]2[C@@H](OC(=O)c3ccccc3)[C@@H](C)C[C@]2(O)[C@H](OC(C)=O)[C@@]2(C)[C@@H]3CC(C)(C)C(=O)[C@]3(OC(C)=O)C[C@@]12C ?
inactive

Would you kindly repeat that for COc1ccc(C(=O)C#Cc2cn(C3CC(O)C(CO)O3)c(=O)[nH]c2=O)cc1 (stereo not given) ?
inactive

Would you kindly repeat that for CCOC(=O)c1ccc(Nc2cnc3ccc(C(F)(F)F)cc3n2)cc1 ?
inactive

Would you kindly repeat that for O=C1N/C(=N\C2CCCCC2)C2(CCN(CCCC3(c4ccc(F)cc4)OCCO3)CC2)N1c1ccccc1 ?
inactive

Would you kindly repeat that for CC1(CCC(=O)OC2CCCCC2)OCCO1 ?
inactive

Would you kindly repeat that for Cc1ccc(-c2nc(C)c(C(=O)Nc3ccc(Cl)cc3)s2)cc1 ?
inactive

Would you kindly repeat that for O=C(O)CCC/N=C(\C(=N\CCCC(=O)O)c1ccccc1)c1ccccc1 ?
inactive

Would you kindly repeat that for O=C1CC(n2cccc2)c2c(Br)sc(Br)c21 (stereo not given) ?
inactive

Would you kindly repeat that for Cc1ccc(-n2nnc(C#N)c2O)cc1 ?
inactive

Would you kindly repeat that for COC1=C(OC)C(=O)C(C/C=C/c2c(Cl)nc3sccn23)=C(C)C1=O ?
inactive

Would you kindly repeat that for O=S(=O)(CC#CCS(=O)(=O)c1ccccc1)c1ccccc1 ?
inactive

Would you kindly repeat that for O=C(OCc1ccccc1)N1c2cc([N+](=O)[O-])ccc2C(=O)N2CCC[C@H]2C1O (stereo not given in full) ?
inactive

Would you kindly repeat that for CC(N1CCOCC1)C(O)(c1ccccc1)c1ccccn1 (stereo not given) ?
inactive

Would you kindly repeat that for Oc1c(/N=N/c2ccccc2)c2ccccc2c2ccc3ccccc3c12 ?
inactive
